tested on: MALME-3M melanoma; test: NCI tumour cell line growth inhibition, 48 h
RECORDED_ENDPOINT: TGI (µM)
Give bare numbers, in µM.

Guide cases for TGI, answers given:
COMPOUND: CCOc1c(Cl)cc(CNC(C)C(O)c2ccccc2)cc1OC (stereo unspecified)
VALUE_UNIT: µM
RECORDED_NUMBER: 33.6

COMPOUND: CC1(C)C2CCC3(C2)CS(=O)(=O)N2OC231 (stereo unspecified)
VALUE_UNIT: µM
RECORDED_NUMBER: 28.8

COMPOUND: COc1cc(C2SCC(=O)N2c2ccc(Oc3ccc(Cl)cc3)c(Cl)c2)cc(OC)c1OC (stereo unspecified)
VALUE_UNIT: µM
RECORDED_NUMBER: 37.5

COMPOUND: C=C(C)C1CC=C(C)C2(C1)OCC(C)(C)C(C)O2 (stereo unspecified)
VALUE_UNIT: µM
RECORDED_NUMBER: 29.5

Proceed to the following item.
Case COC(=O)C1(Cc2ccccc2)Cc2ccccc2C1 , MALME-3M melanoma, TGI recorded as 35.4
